pIC50: −log10 of the molar value.
Parameter 'readout' = pIC50; parameter 'system' = PI3K β (Homo sapiens).
Sequence (P42338 whole entry): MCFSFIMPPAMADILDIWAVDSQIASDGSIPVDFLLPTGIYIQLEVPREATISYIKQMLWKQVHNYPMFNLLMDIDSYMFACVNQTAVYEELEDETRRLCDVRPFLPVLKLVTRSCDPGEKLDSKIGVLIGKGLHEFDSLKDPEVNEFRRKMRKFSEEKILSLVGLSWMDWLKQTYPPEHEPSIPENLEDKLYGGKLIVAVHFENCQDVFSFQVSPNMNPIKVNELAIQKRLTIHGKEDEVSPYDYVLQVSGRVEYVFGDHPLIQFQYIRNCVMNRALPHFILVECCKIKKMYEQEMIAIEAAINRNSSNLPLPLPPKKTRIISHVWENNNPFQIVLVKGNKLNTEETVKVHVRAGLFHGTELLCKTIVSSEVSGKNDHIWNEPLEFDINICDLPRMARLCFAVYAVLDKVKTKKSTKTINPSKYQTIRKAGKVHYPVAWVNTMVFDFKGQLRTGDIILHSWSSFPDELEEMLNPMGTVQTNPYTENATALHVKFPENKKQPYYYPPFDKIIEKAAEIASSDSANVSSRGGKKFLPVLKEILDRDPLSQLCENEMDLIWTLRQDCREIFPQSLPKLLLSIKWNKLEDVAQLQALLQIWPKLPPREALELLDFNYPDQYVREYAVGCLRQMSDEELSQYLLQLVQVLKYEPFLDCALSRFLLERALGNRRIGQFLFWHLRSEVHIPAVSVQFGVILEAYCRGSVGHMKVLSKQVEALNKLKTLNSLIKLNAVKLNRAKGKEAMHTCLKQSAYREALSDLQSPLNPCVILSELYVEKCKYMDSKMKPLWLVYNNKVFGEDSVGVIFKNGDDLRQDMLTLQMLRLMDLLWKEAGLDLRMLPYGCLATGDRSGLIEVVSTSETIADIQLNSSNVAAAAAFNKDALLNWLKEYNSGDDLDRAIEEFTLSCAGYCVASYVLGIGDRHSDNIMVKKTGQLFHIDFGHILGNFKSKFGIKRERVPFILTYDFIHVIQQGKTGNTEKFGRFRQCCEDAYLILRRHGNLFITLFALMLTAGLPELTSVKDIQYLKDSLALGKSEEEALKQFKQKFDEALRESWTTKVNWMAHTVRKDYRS
Sequence (P27986 whole entry partner): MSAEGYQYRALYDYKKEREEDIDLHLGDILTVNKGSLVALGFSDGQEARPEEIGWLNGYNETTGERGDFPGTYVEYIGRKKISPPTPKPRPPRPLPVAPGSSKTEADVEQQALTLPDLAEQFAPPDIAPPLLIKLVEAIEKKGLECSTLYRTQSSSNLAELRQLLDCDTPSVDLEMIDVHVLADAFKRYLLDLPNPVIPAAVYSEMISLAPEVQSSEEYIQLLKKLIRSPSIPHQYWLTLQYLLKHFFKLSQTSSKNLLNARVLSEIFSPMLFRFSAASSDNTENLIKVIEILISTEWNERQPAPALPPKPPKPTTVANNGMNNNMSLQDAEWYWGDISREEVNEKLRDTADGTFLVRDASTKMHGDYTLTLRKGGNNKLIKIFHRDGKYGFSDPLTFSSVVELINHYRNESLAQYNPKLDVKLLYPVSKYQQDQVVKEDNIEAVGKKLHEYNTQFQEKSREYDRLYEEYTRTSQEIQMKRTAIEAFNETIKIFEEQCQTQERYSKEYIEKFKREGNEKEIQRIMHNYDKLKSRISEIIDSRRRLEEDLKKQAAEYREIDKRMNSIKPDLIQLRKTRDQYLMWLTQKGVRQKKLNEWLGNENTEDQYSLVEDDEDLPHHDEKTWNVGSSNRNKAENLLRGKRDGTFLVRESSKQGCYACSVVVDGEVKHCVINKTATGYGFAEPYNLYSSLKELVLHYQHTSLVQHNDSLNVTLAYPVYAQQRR

// below: answered molecules
smiles: C[C@H](NC(=O)c1nc(-c2cccc(NS(C)(=O)=O)c2)cnc1N)c1cc2cccc(Cl)c2c(=O)n1-c1ccccc1
pIC50: 6.00 to 7.00
//
smiles: C[C@H](NC(=O)c1c(N)nn2cccnc12)c1cc2cccc(C(F)(F)F)c2c(=O)n1-c1ccccc1
pIC50: 5.00 to 6.00

Query: For Cc1cccc2cc([C@H](C)NC(=O)c3c(N)nn4cccnc34)n(-c3ccccc3)c(=O)c12 , what is its reported pIC50?
Response: 5.00 to 6.00

Query: For COc1cncc(-c2cccc3cc([C@H](C)NC(=O)c4c(N)nn5cccnc45)n(-c4ccccc4)c(=O)c23)c1 , what is its reported pIC50?
Response: < 5.00

Query: For C[C@H](NC(=O)c1c(N)nn2cccnc12)c1cc2cccc(C#CCNC(=O)[C@@H]3CCC(=O)O3)c2c(=O)n1-c1ccccc1 , what is its reported pIC50?
Response: 6.00 to 7.00

Query: For CNCc1cccc2cc([C@H](C)NC(=O)c3c(N)nn4cccnc34)n(-c3ccccc3)c(=O)c12 , what is its reported pIC50?
Response: < 5.00

Query: For C[C@H](NC(=O)c1cnc2cccnn12)c1cc2cccc(Cl)c2c(=O)n1-c1ccccc1 , what is its reported pIC50?
Response: 5.00 to 6.00

Query: For COc1cc(-c2csc3cc([C@H](C)NC(=O)c4c(N)nn5cccnc45)n(-c4ccccc4)c(=O)c23)ccn1 , what is its reported pIC50?
Response: < 5.00

Query: For C[C@H](NC(=O)c1c(N)nn2cccnc12)c1nn2ccc(-c3cnn(C)c3)c2c(=O)n1-c1ccccc1 , what is its reported pIC50?
Response: < 5.00

Query: For C[C@H](NC(=O)c1c(N)nn2cccnc12)c1cc2cccc(C#CCNC(=O)C3CCCCC3)c2c(=O)n1-c1ccccc1 , what is its reported pIC50?
Response: 5.00 to 6.00

Query: For C[C@H](NC(=O)c1nc(-c2cccc(NS(C)(=O)=O)c2)c(N)nc1N)c1cc2cccc(Cl)c2c(=O)n1-c1ccccc1 , what is its reported pIC50?
Response: > 7.00

====

targetOrSystem: PI3K α (Homo sapiens)
pIC50: −log10 of the molar value.
testReadout: pIC50

// below: answered compounds
compound: C[C@H](NC(=O)c1c(N)nn2cccnc12)c1nn2ccc(-c3cnn(C)c3)c2c(=O)n1-c1ccccc1
value: < 5.00
--
compound: CC(C)Oc1cc(-c2cccc3cc([C@H](C)NC(=O)c4c(N)nn5cccnc45)n(-c4ccccc4)c(=O)c23)ccn1
value: < 5.00

Query: Record CC(C)NS(=O)(=O)c1cccc(-c2cnc(N)c(C(=O)N[C@@H](C)c3cc4cccc(Cl)c4c(=O)n3-c3ccccc3)n2)c1 : what is its pIC50 with PI3K α (Homo sapiens)?
Response: 5.00 to 6.00

====

// reported IC50 per item
targetOrSystem: UniProt O00329
Sequence (O00329 whole entry): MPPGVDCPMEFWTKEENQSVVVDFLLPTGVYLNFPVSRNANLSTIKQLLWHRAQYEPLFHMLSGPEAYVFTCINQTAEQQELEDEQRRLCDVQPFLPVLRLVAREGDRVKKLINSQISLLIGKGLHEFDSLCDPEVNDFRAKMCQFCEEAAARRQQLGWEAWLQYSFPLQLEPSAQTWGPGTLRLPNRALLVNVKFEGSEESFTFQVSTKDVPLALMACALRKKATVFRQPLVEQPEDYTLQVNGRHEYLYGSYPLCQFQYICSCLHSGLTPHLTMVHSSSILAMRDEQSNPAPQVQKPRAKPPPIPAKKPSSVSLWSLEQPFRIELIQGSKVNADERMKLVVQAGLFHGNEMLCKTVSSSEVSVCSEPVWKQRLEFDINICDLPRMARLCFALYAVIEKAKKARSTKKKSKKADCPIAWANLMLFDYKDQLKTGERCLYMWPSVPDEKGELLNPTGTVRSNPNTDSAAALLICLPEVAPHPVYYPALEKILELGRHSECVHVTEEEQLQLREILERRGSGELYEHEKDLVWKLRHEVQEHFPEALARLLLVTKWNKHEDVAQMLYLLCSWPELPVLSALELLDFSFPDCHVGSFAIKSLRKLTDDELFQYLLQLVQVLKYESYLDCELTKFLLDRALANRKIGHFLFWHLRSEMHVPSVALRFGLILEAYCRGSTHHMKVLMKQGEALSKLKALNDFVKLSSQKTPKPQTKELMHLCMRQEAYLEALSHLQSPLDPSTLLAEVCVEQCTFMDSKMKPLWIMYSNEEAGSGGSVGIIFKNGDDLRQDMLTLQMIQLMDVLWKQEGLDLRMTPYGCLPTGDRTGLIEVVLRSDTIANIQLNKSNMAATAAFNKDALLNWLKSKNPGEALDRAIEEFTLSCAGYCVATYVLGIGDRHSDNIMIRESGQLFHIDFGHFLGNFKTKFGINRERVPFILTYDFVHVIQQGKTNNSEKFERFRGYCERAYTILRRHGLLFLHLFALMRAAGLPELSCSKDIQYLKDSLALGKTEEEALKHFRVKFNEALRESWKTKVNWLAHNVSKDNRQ
Sequence (P27986 whole entry partner): as the sequence (P27986 whole entry partner) above
experimentalProtocol: RAJI p110 δ cellular assay (phospho-AKT);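 note: potency based on lowered phosphorylated AKT in RAJI cells, as a readout of PI3K-δ dependent B-cell receptor signaling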

// below: answered molecules
molecule: C[C@H](NC(=O)c1c(N)nn2cccnc12)c1cc2ccsc2c(=O)n1-c1ccccc1 [Compound 198]
value: 100 to 1000 nM
--
molecule: C[C@H](NC(=O)c1nccnc1N)c1cc2cccc(Cl)c2c(=O)n1-c1ccc(F)cc1 [Compound 19]
value: < 100 nM
--
molecule: C[C@H](NC(=O)c1nc(-c2cccc(NS(C)(=O)=O)c2)cnc1N)c1cc2cccc(Cl)c2c(=O)n1C [Compound 183]
value: < 100 nM

Moving on to the next molecule.
Query: For C[C@H](NC(=O)c1nc(-c2cccc(S(=O)(=O)NC3CC3)c2)cnc1N)c1cc2cccc(Cl)c2c(=O)n1C [Compound 194] , what is its reported IC50?
Response: < 100 nM

====

Parameter 'readout' = IC50; parameter 'system' = PI3K γ (Homo sapiens).
Sequence (P48736 whole entry): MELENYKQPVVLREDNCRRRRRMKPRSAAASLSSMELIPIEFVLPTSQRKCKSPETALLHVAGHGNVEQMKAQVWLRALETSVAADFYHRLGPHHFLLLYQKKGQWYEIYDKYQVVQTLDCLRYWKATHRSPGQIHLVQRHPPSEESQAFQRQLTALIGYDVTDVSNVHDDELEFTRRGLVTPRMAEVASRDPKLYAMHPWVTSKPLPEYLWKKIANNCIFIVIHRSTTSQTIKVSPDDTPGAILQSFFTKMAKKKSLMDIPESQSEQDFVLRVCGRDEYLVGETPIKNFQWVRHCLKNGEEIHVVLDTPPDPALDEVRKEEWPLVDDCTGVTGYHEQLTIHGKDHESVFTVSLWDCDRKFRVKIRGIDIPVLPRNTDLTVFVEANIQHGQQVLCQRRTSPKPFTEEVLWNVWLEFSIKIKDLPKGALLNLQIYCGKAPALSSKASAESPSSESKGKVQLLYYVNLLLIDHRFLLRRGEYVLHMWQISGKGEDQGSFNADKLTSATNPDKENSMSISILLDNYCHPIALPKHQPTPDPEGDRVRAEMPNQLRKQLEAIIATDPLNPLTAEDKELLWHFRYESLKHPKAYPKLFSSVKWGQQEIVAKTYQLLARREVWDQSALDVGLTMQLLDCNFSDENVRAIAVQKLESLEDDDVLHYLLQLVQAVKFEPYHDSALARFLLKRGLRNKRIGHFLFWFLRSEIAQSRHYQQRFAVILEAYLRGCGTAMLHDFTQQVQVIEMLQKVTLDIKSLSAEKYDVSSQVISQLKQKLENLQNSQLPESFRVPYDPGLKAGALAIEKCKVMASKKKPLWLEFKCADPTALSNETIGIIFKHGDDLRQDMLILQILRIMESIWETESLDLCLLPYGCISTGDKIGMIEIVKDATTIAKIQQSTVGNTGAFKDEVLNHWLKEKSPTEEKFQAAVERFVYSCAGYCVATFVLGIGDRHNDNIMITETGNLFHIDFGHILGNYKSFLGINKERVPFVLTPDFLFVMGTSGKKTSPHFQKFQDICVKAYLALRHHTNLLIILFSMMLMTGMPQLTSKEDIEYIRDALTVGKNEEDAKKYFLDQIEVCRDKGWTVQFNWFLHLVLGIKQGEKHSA

// below: answered compounds
compound: C[C@H](NC(=O)c1c(N)nn2cccnc12)c1cc2sccc2c(=O)n1-c1ccccc1 [Compound 225]
targetOrSystem: PI3K γ (Homo sapiens)
IC50: 1000 to 10000 nM
//
compound: CC(C)n1c([C@H](C)NC(=O)c2c(N)nn3cccnc23)cc2cccc(Cl)c2c1=O [Compound 73]
targetOrSystem: PI3K γ (Homo sapiens)
IC50: 100 to 1000 nM
//
compound: Cc1cccc2cc([C@H](C)NC(=O)c3c(N)nn4cccnc34)n(-c3ccccc3)c(=O)c12 [Compound 123]
targetOrSystem: PI3K γ (Homo sapiens)
IC50: 100 to 1000 nM

Query: For C[C@H](NC(=O)c1cc(-c2cccc(NS(C)(=O)=O)c2)cnc1N)c1cc2cccc(Cl)c2c(=O)n1-c1ccccc1 [Compound 306] , what is its reported IC50?
Response: > 10000 nM

Query: For COc1ccc(-c2cnc(N)c(C(=O)N[C@@H](C)c3cc4cccc(Cl)c4c(=O)n3-c3ccccc3)n2)cc1OC [Compound 93] , what is its reported IC50?
Response: 100 to 1000 nM

Query: For C[C@H](NC(=O)c1cnc2cccnn12)c1cc2cccc(Cl)c2c(=O)n1-c1ccc(F)cc1 [Compound 20] , what is its reported IC50?
Response: 1000 to 10000 nM

Query: For C[C@H](NC(=O)c1nc(-c2cccc(NS(C)(=O)=O)c2)c(N)nc1N)c1cc2cccc(Cl)c2c(=O)n1-c1ccccc1 [Compound 169] , what is its reported IC50?
Response: < 100 nM

====

Parameter 'readout' = pIC50; parameter 'system' = PI3K γ (Homo sapiens).
pIC50: −log10 of the molar value.

// below: answered compounds
compound: COc1ncc(-c2cccc3cc([C@H](C)NC(=O)c4c(N)nn5cccnc45)n(-c4ccccc4)c(=O)c23)cn1 [Compound 128]
pIC50: 6.00 to 7.00
--
compound: C[C@H](NC(=O)c1c(N)nn2cccnc12)C1Cc2cccc(F)c2C(=O)N1c1ccccc1 (some centres unmarked) [Compound 304]
pIC50: < 5.00
--
compound: COc1cc(-c2cccc3cc([C@H](C)NC(=O)c4c(N)ncc5cccnc45)n(-c4ccccc4)c(=O)c23)ccn1 [Compound 140]
pIC50: > 7.00

Query: Record C[C@H](NC(=O)c1c(N)nn2cccnc12)c1cc2cccc(C3CC3)c2c(=O)n1-c1ccccc1 [Compound 193] : what is its pIC50 with PI3K γ (Homo sapiens)?
Response: 5.00 to 6.00

Query: Record CC(NC(=O)c1c(N)nn2cccnc12)c1cc2cccc(Cl)c2nc1-c1ccccc1 (centres unmarked) [Compound 218] : what is its pIC50 with PI3K γ (Homo sapiens)?
Response: 5.00 to 6.00

Query: Record C[C@H](NC(=O)c1c(N)nn2cccnc12)c1cc2cccc(C#CCCNC(=O)[C@H]3CCC(=O)O3)c2c(=O)n1-c1ccccc1 [Compound 161] : what is its pIC50 with PI3K γ (Homo sapiens)?
Response: 6.00 to 7.00

Query: Record C[C@H](NC(=O)c1c(N)nn2cccnc12)c1cc2cccc(C#CCCN)c2c(=O)n1-c1ccccc1 [Compound 154] : what is its pIC50 with PI3K γ (Homo sapiens)?
Response: 6.00 to 7.00

Query: Record C[C@H](NC(=O)c1cnc2cccnn12)c1cc2cccc(Cl)c2c(=O)n1-c1ccccc1 [Compound 13] : what is its pIC50 with PI3K γ (Homo sapiens)?
Response: 5.00 to 6.00

Query: Record C[C@H](NC(=O)c1c(N)nn2cccnc12)c1cc2cccc(O)c2c(=O)n1-c1ccccc1 [Compound 132] : what is its pIC50 with PI3K γ (Homo sapiens)?
Response: 5.00 to 6.00

Query: Record C[C@H](NC(=O)c1c(N)nn2cccnc12)c1cc2cccc(Cl)c2c(=O)n1-c1ccc(F)c(F)c1 [Compound 75] : what is its pIC50 with PI3K γ (Homo sapiens)?
Response: > 7.00

====

pIC50: −log10 of the molar value.
Parameter 'readout' = pIC50; parameter 'system' = PI3K α (Homo sapiens, UniProt P42336).
Sequence (P42336 whole entry): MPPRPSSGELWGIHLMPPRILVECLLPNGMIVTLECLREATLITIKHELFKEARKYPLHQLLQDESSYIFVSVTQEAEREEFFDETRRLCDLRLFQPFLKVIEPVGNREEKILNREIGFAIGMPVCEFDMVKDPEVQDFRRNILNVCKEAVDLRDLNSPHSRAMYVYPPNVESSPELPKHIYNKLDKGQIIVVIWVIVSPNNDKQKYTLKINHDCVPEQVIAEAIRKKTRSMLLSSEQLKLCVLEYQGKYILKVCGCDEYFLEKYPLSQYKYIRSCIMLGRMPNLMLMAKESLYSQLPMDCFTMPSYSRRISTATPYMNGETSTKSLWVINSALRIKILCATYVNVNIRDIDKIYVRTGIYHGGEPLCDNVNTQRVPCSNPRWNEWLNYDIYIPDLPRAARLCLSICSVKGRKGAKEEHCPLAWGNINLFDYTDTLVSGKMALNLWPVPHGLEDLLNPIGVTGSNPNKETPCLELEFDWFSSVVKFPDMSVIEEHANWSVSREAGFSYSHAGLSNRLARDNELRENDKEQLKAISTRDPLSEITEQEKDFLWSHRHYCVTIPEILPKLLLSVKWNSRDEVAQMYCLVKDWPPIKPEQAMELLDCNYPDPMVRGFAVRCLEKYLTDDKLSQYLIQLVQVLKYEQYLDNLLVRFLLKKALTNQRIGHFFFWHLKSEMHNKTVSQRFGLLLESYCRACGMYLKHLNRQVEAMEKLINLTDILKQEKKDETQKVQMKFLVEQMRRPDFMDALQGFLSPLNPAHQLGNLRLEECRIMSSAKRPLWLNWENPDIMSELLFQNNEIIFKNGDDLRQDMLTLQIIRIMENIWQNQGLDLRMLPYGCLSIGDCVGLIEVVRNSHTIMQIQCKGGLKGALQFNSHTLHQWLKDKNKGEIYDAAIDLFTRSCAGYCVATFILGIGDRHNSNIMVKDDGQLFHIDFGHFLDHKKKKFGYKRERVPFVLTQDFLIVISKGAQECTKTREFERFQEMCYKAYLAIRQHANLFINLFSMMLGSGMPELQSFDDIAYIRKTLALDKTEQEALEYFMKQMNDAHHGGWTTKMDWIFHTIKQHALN
Sequence (P27986 whole entry partner): as the sequence (P27986 whole entry partner) above

Query: For CC(=O)N(C)Cc1cccc2cc([C@H](C)NC(=O)c3c(N)nn4cccnc34)n(-c3ccccc3)c(=O)c12 , what is its reported pIC50?
Response: < 5.00

Query: For C[C@H](NC(=O)c1c(N)nn2cccnc12)c1cc2ccccc2c(=O)n1-c1ccccc1 , what is its reported pIC50?
Response: < 5.00

Query: For C[C@H](NC(=O)c1c(N)nn2cccnc12)c1cc2cccc(C#N)c2c(=O)n1-c1ccccc1 , what is its reported pIC50?
Response: < 5.00

Query: For C[C@H](NC(=O)c1c(N)nn2cccnc12)c1cc2cccc(C#CCNC(=O)C3CCCCC3)c2c(=O)n1-c1ccccc1 , what is its reported pIC50?
Response: 5.00 to 6.00
